Test system: A431
test protocol: LBPA endosome anti-LBPA integrated intensity (sum per cell), Z-score; higher = more LBPA staining
settings: compound concentration in added solution (µM; 5 µl added to 20 µl cells): 10; 18 h
Structures can show the parent of a compound that is named as a salt.
Cut-off -0.5 on LBPA endosome anti-LBPA integrated intensity (z-score), inclusive. At or above means y; below means n.

Below are worked cases with known answers.
compound="O=c1n(CCCN2CCN(c3cccc(Cl)c3)CC2)nc2ccccn12 [Trazodone hydrochloride]" answer_label=y
compound="CC(C(=O)O)c1ccc2c(c1)[nH]c1ccc(Cl)cc12 (stereo not drawn) [Carprofen]" answer_label=n

Tell me whether LBPA endosome anti-LBPA integrated intensity (z-score) is at least -0.5 here: CCCCC1(COC(=O)CCC(=O)O)C(=O)N(c2ccccc2)N(c2ccccc2)C1=O [Suxibuzone] y

Same read-out for CN(C)CCCOc1nn(Cc2ccccc2)c2ccccc12 [Benzydamine hydrochloride] ? y

Same read-out for C/C=C(/C(=C/C)c1ccc(O)cc1)c1ccc(O)cc1 [Dienestrol] ? n

----------
Reported LBPA endosome anti-LBPA integrated intensity (z-score) by item:
Tested on: HeLa MZ
test protocol: LBPA endosome anti-LBPA integrated intensity (sum per cell), Z-score; higher = more LBPA staining
settings: compound concentration in added solution (µM; 5 µl added to 20 µl cells): 10; 18 h
I only need the number, thanks.

Illustrative cases are given below, each with its answer.
compound="CNS(=O)(=O)Cc1ccc2[nH]cc(CCN(C)C)c2c1 [Sumatriptan succinate]" target="HeLa MZ" reported_measurement=0.265
compound="CC(C)NNC(=O)c1ccncc1 [Iproniazide phosphate]" target="HeLa MZ" reported_measurement=-0.948

Look up LBPA endosome anti-LBPA integrated intensity (z-score): CC[C@]12CCCN3CCc4c(n(c5ccccc45)C(=O)C1)[C@@H]32 [Eburnamonine (-)] -1.3

----------
Tested on: A431
test protocol: LBPA endosome anti-LBPA integrated intensity (sum per cell), Z-score; higher = more LBPA staining
settings: compound concentration in added solution (µM; 5 µl added to 20 µl cells): 10; 18 h
Structures can show the parent of a compound that is named as a salt.
Cut-off -0.6 on LBPA endosome anti-LBPA integrated intensity (z-score), inclusive. At or above means true; below means false.

Below are worked cases with known answers.
molecule="CN(C)CCCC1(c2ccc(F)cc2)OCc2cc(C#N)ccc21 (centres undefined) [Citalopram Hydrobromide]" target=A431 answer_label=true
molecule="CNCCc1ccccn1 [Betahistine mesylate]" target=A431 answer_label=true
molecule="CC1(C)NC(=O)N(c2ccc([N+](=O)[O-])c(C(F)(F)F)c2)C1=O [Nilutamide]" target=A431 answer_label=true
molecule="O=C(OCCOCCO)c1ccccc1Nc1cccc(C(F)(F)F)c1 [Etofenamate]" target=A431 answer_label=true
molecule=C[C@@H]1C[C@H]2[C@@H]3C[C@H](F)C4=CC(=O)C=C[C@]4(C)[C@@]3(F)[C@@H](O)C[C@]2(C)[C@@]1(O)C(=O)CO target=A431 answer_label=true
molecule=O=c1[nH]c(=O)n([C@H]2C[C@H](O)[C@@H](CO)O2)cc1C(F)(F)F target=A431 answer_label=true
molecule=CCOC(=O)n1ccn(C)c1=S target=A431 answer_label=true
molecule=NC(=O)N/N=C/c1ccc([N+](=O)[O-])o1 target=A431 answer_label=true

Please examine the following record next.
Tell me whether LBPA endosome anti-LBPA integrated intensity (z-score) is at least -0.6 here: O=C(N/N=C/c1ccc([N+](=O)[O-])o1)c1ccc(O)cc1 [Nifuroxazide] false
